Species on record: Rattus norvegicus
Assay: Open TG-GATES - Regimen: Daily Repeat
Type: toxicity, organism-based, Sprague-Dawley
Design: regimen Daily Repeat, gender Male, age 6 weeks
Settings: in vivo, po, 0 mg/kg, […], tissue Blood, route gavage, dose level Control, time 14 day
Please go through the items and note down their MCHC.

Consider C[C@H]1O[C@H](O[C@H]2[C@H](O)[C@@H](O)[C@@H](O[C@H]3[C@H](O)[C@@H](O)C(O)O[C@@H]3CO)O[C@@H]2CO)[C@H](O)[C@@H](O)[C@@H]1N[C@H]1C=C(CO)[C@@H](O)[C@H](O)[C@H]1O (some centres undefined) [ACARBOSE] . Its measured MCHC is 33.8%

// OCCN1CCN(CCCN2c3ccccc3Sc3ccc(C(F)(F)F)cc32)CC1 [FLUPHENAZINE] : MCHC value = 33.3%

Given item O=C1CN(/N=C/c2ccc([N+](=O)[O-])o2)C(=O)N1 [NITROFURANTOIN] , the value recorded as its MCHC is 35.1%

MCHC in this record for Cn1cc[nH]c1=S [METHIMAZOLE] : 34.9%

---

Please go through the items and note down their Mono.
Species on record: Rattus norvegicus
Experiment: Open TG-GATES - Regimen: Daily Repeat
Type: toxicity, organism-based, Sprague-Dawley
Set-up: regimen Daily Repeat, gender Male, age 6 weeks
Conditions: in vivo, po, 0 mg/kg, […], tissue Blood, route gavage, dose level Control, time 7 day
Value expressed in %; do not type the unit.

According to the records, this compound Cc1cccc(C)c1OCC(C)N (stereo not given) [MEXILETINE] displays Mono of 2.8

# Mono of C[C@H]1C(=O)O[C@@H]2CCN3CC=C(COC(=O)[C@](C)(O)[C@]1(C)O)[C@H]23 [MONOCROTALINE] = 2.6

The reported Mono of the compound O=[N+]([O-])c1ccc(O)c([N+](=O)[O-])c1 [2,4-DINITROPHENOL] was 5

Measured Mono, C=C(C)[C@H]1Cc2c(ccc3c2O[C@@H]2COc4cc(OC)c(OC)cc4[C@@H]2C3=O)O1 [ROTENONE] : 6

# compound Cn1cc[nH]c1=S [METHIMAZOLE] ; its Mono = 2.6

---

Kindly state KIDNEY_TOTAL for each of the entries shown.
Species: Rattus norvegicus
Experiment: Open TG-GATES - Regimen: Single
Type: toxicity, organism-based, Sprague-Dawley
Design: regimen Single, gender Male, age 6 weeks
Conditions: in vivo, po, 0 mg/kg, 24 h, tissue Kidney, route gavage, dose level Control
Number only, in g; omit the unit.

Reported KIDNEY_TOTAL ( Cc1ccc2cc3c(ccc4ccccc43)c3c2c1CC3 ) = 1.9

// OCCN1CCN(CCCN2c3ccccc3Sc3ccc(C(F)(F)F)cc32)CC1 : KIDNEY_TOTAL value = 1.9

Looking up C[C@H]1O[C@H](O[C@H]2[C@H](O)[C@@H](O)[C@@H](O[C@H]3[C@H](O)[C@@H](O)C(O)O[C@@H]3CO)O[C@@H]2CO)[C@H](O)[C@@H](O)[C@@H]1N[C@H]1C=C(CO)[C@@H](O)[C@H](O)[C@H]1O (stereo partly specified) , I found its KIDNEY_TOTAL recorded as 1.9

So, CCOC(=O)C(C)(C)Oc1ccc(Cl)cc1 [CLOFIBRATE] ? Its KIDNEY_TOTAL was 2

// KIDNEY_TOTAL value for C[C@H]1C(=O)O[C@@H]2CCN3CC=C(COC(=O)[C@](C)(O)[C@]1(C)O)[C@H]23 : 2

# compound Cc1cccc(C)c1OCC(C)N (stereo unspecified) ; its KIDNEY_TOTAL = 1.9

---

Give Eos for every item shown.
Species: Rattus norvegicus
Assay: Open TG-GATES - Regimen: Daily Repeat
Format: toxicity, organism-based, Sprague-Dawley
Set-up: regimen Daily Repeat, gender Male, age 6 weeks
Conditions: in vivo, po, 0 mg/kg, […], tissue Blood, route gavage, dose level Control, time 7 day
Expressed in %, but write only the number.

Given item C=C(C)[C@H]1Cc2c(ccc3c2O[C@@H]2COc4cc(OC)c(OC)cc4[C@@H]2C3=O)O1 [ROTENONE] , the value recorded as its Eos is 1

Value of Eos reported for the molecule O=[N+]([O-])c1ccc(O)c([N+](=O)[O-])c1 [2,4-DINITROPHENOL] is 1

The molecule identified as Cc1cccc(C)c1OCC(C)N (centres undefined) [MEXILETINE] registered its Eos at 1

So, C[C@H]1O[C@H](O[C@H]2[C@H](O)[C@@H](O)[C@@H](O[C@H]3[C@H](O)[C@@H](O)C(O)O[C@@H]3CO)O[C@@H]2CO)[C@H](O)[C@@H](O)[C@@H]1N[C@H]1C=C(CO)[C@@H](O)[C@H](O)[C@H]1O (some centres undefined) [ACARBOSE] ? Its Eos was 0.8

Lookup result for O=C1CN(/N=C/c2ccc([N+](=O)[O-])o2)C(=O)N1 [NITROFURANTOIN] ; measured Eos: 0.8

The molecule identified as CCOC(=O)C(C)(C)Oc1ccc(Cl)cc1 [CLOFIBRATE] registered its Eos at 0.8

What the record says about Cn1cc[nH]c1=S [METHIMAZOLE] : Eos is 0.8

Reported Eos for C[C@H]1C(=O)O[C@@H]2CCN3CC=C(COC(=O)[C@](C)(O)[C@]1(C)O)[C@H]23 [MONOCROTALINE] was 0.8

According to the records, this molecule OCCN1CCN(CCCN2c3ccccc3Sc3ccc(C(F)(F)F)cc32)CC1 [FLUPHENAZINE] displays Eos of 1

---

Species on record: Rattus norvegicus
Assay: Open TG-GATES - Regimen: Daily Repeat
Format: toxicity, organism-based, Sprague-Dawley
Set-up: regimen Daily Repeat, gender Male, age 6 weeks
Conditions: in vivo, po, 0 mg/kg, 72 h, tissue Blood, route gavage, dose level Control, time 3 day
observed property: Plat (x10_4/uL)
Numeric only. Scale: x10_4/uL

Summary for this compound, OCCN1CCN(CCCN2c3ccccc3Sc3ccc(C(F)(F)F)cc32)CC1 [FLUPHENAZINE] : Plat is 126.3

So, O=C1CN(/N=C/c2ccc([N+](=O)[O-])o2)C(=O)N1 [NITROFURANTOIN] ? Its Plat was 134.3

// Plat lookup, compound = O=[N+]([O-])c1ccc(O)c([N+](=O)[O-])c1 [2,4-DINITROPHENOL] , result: 131.4

// Plat value for C[C@H]1O[C@H](O[C@H]2[C@H](O)[C@@H](O)[C@@H](O[C@H]3[C@H](O)[C@@H](O)C(O)O[C@@H]3CO)O[C@@H]2CO)[C@H](O)[C@@H](O)[C@@H]1N[C@H]1C=C(CO)[C@@H](O)[C@H](O)[C@H]1O (some centres undefined) [ACARBOSE] : 129.5

---

For each entry below, report its Neu value.
Species: Rattus norvegicus
Test: Open TG-GATES - Regimen: Single
Format: toxicity, organism-based, Sprague-Dawley
Parameters: regimen Single, gender Male, age 6 weeks
Conditions: in vivo, po, 0 mg/kg, 9 h, tissue Blood, route gavage, dose level Control
Report only the number, with the unit % understood.

Entry Cc1cccc(C)c1OCC(C)N (centres undefined) [MEXILETINE] , Neu reported as 19.6

Neu recorded for this compound, C[C@H]1C(=O)O[C@@H]2CCN3CC=C(COC(=O)[C@](C)(O)[C@]1(C)O)[C@H]23 [MONOCROTALINE] , is 22.4

Neu recorded for this compound, OCCN1CCN(CCCN2c3ccccc3Sc3ccc(C(F)(F)F)cc32)CC1 [FLUPHENAZINE] , is 13.2

The compound C[C@H]1O[C@H](O[C@H]2[C@H](O)[C@@H](O)[C@@H](O[C@H]3[C@H](O)[C@@H](O)C(O)O[C@@H]3CO)O[C@@H]2CO)[C@H](O)[C@@H](O)[C@@H]1N[C@H]1C=C(CO)[C@@H](O)[C@H](O)[C@H]1O (some centres undefined) [ACARBOSE] showed Neu equal to 21

Query CCOC(=O)C(C)(C)Oc1ccc(Cl)cc1 [CLOFIBRATE] yields Neu of 22.8

Consider Cn1cc[nH]c1=S [METHIMAZOLE] . Its measured Neu is 14.8

Reported Neu ( C=C(C)[C@H]1Cc2c(ccc3c2O[C@@H]2COc4cc(OC)c(OC)cc4[C@@H]2C3=O)O1 [ROTENONE] ) = 16.6

Sure, the documented Neu for O=[N+]([O-])c1ccc(O)c([N+](=O)[O-])c1 [2,4-DINITROPHENOL] is 14.6

Reported Neu for Cc1ccc2cc3c(ccc4ccccc43)c3c2c1CC3 [3-METHYLCHOLANTHRENE] was 21

---

Species: Rattus norvegicus
Test: Open TG-GATES - Regimen: Daily Repeat
Format: toxicity, organism-based, Sprague-Dawley
Design: regimen Daily Repeat, gender Male, age 6 weeks
Settings: in vivo, po, 0 mg/kg, […], tissue Plasma, route gavage, dose level Control, time 14 day
observed property: A/G
Please respond with just the number, no unit label.

For this compound ( C=C(C)[C@H]1Cc2c(ccc3c2O[C@@H]2COc4cc(OC)c(OC)cc4[C@@H]2C3=O)O1 [ROTENONE] ), measured A/G is 2.1

# A/G of O=[N+]([O-])c1ccc(O)c([N+](=O)[O-])c1 [2,4-DINITROPHENOL] = 2

O=C1CN(/N=C/c2ccc([N+](=O)[O-])o2)C(=O)N1 [NITROFURANTOIN] has a reported A/G of 1.4

GET /value?item= C[C@H]1O[C@H](O[C@H]2[C@H](O)[C@@H](O)[C@@H](O[C@H]3[C@H](O)[C@@H](O)C(O)O[C@@H]3CO)O[C@@H]2CO)[C@H](O)[C@@H](O)[C@@H]1N[C@H]1C=C(CO)[C@@H](O)[C@H](O)[C@H]1O (stereo partly drawn) [ACARBOSE] &field=A/G returns 0.8

CCOC(=O)C(C)(C)Oc1ccc(Cl)cc1 [CLOFIBRATE] has a reported A/G of 1.3

Form field A/G, entry C[C@H]1C(=O)O[C@@H]2CCN3CC=C(COC(=O)[C@](C)(O)[C@]1(C)O)[C@H]23 [MONOCROTALINE] : 1.2

A/G in this record for Cn1cc[nH]c1=S [METHIMAZOLE] : 1.1

Please fill in: A/G reported for Cc1cccc(C)c1OCC(C)N (stereo not drawn) [MEXILETINE] = 1.1

Origin of measurements: ChEMBL document CHEMBL3885861
